# System: phosphorylation of STAT6
# PROCEDURE TEXT: Cellular p-STAT6 assay, IL-13 stimulated THP-1 cells, flow cytometry
# Type: cell-based
# STUDY CONDITIONS: Homo sapiens, THP-1, THP-1 cells, IL-13 10 ng/ml; read-out: pSTAT6 IC50
MEASUREMENT NAME: IC50 (nM)
Expressed in nM, but write only the number.

These recorded examples may help you get a feel for the data.
INSERT INTO measurements (molecule, obs_value) VALUES
  ('COC[C@H](C(=O)Nc1cccc2c(-c3nc(Nc4cnn(C5CCOC5)c4)ncc3F)c[nH]c12)N1CCN(C)CC1 (single isomer, unassigned; isomer 1)', 10.3),
  ('COC[C@H](C(=O)Nc1cccc2c(-c3nc(Nc4ccnc(C(=O)OC)c4)ncc3F)c[nH]c12)N1CCN(C)CC1', 5.1),
  ('COC[C@H](C(=O)Nc1cccc2c(-c3nc(Nc4ccc5nc[nH]c5c4)ncc3F)c[nH]c12)N1CCN(C)CC1', 13.4),
  ('COC[C@H](C(=O)Nc1cccc2c(-c3nc(Nc4ccc5c(c4)C(=O)OCC5)ncc3F)c[nH]c12)N1CCN(C)CC1', 18.4);

Consider COC[C@H](C(=O)Nc1cccc2c(-c3nc(Nc4ccc(-n5ccnc5)nc4)ncc3F)c[nH]c12)N1CCN(C)CC1 . Its measured IC50 is 8.9

Memo: COC[C@H](C(=O)Nc1cccc2c(-c3nc(Nc4ccc5c(C)n[nH]c5c4)ncc3F)c[nH]c12)N1CCN(C)CC1 , reported IC50: 7.6

----------
# PROCEDURE TEXT: Metabolic stability in human liver microsome
# Format: in vitro ADME
# STUDY CONDITIONS: human, pooled human liver microsomes, pH 7.4, 1 μM compound, 1 mg/mL microsomes, NADPH
MEASUREMENT NAME: microsomal CLint at 1 μM (µL/min/mg)
Kindly provide the numeric value in µL/min/mg only, without the unit symbol.

INSERT INTO results (compound, measurement_name, obs_value) VALUES
  ('COC[C@H](C(=O)Nc1cccc2c(-c3nc(Nc4ccc(CCO)nc4)ncc3F)c[nH]c12)N1CCN(C)CC1', 'microsomal CLint at 1 μM', 7);

Reported microsomal CLint at 1 μM for COC[C@H](C(=O)Nc1cccc2c(-c3nc(Nc4cnn(C5CCOC5)c4)ncc3F)c[nH]c12)N1CCN(C)CC1 (single isomer, unassigned; isomer 1) was 13.5

According to the records, this compound COC[C@H](C(=O)Nc1cccc2c(-c3nc(Nc4ccc5sc(CO)nc5c4)ncc3F)c[nH]c12)N1CCN(C)CC1 displays microsomal CLint at 1 μM of 10.9

----------
# PROCEDURE TEXT: Pharmacokinetics in plasma and lung in mouse, intratracheal instillation
# Assay type: in vivo
# STUDY CONDITIONS: mouse, lung/plasma, other: intratracheal instillation, male CD1 mice, 1 hr, read-out: Conc. Ratio (Lung/Plasma) 1 hr
Attribute: Kp at 1 h
Please reply with the value in numeric form only.

Worked cases, answers included:
INSERT INTO measurements (chem_smiles, obs_value) VALUES
  ('COC[C@H](C(=O)Nc1cccc2c(-c3nc(Nc4ccnc(CO)c4)ncc3F)c[nH]c12)N1CCN(C)CC1', 3260),
  ('COC[C@H](C(=O)Nc1cccc2c(-c3nc(Nc4ccc(-c5cnco5)nc4)ncc3F)c[nH]c12)N1CCN(C)CC1', 1440),
  ('COC[C@H](C(=O)Nc1cccc2c(-c3nc(Nc4ccc5sc(CO)nc5c4)ncc3F)c[nH]c12)N1CCN(C)CC1', 1780),
  ('COC[C@H](C(=O)Nc1cccc2c(-c3nc(Nc4ccc(NC(=O)CO)nc4)ncc3F)c[nH]c12)N1CCN(C)CC1', 1590);

Field Kp at 1 h (entry CCC(=O)Nc1ccc(Nc2ncc(F)c(-c3c[nH]c4c(NC(=O)[C@@H](COC)N5CCN(C)CC5)cccc34)n2)cn1 ) reads 2940
